Reported cell proliferation is given for each of the following compounds.
System: HeLa cell line
Test: MTT cytotoxicity assay
Assay type: cell-based
Conditions: 48h, 25 µM, Repeat No 1

| Compound | cell proliferation (%) |
| --- | --- |
| O=C(N/N=C/c1cc(I)cc(I)c1O)c1ccccc1I [Compound 14] | 82 |
| O=C(N/N=C/c1cc(Br)cc(Br)c1O)c1cccc(I)c1 [Compound 21] | 101 |
| O=C(N/N=C/c1cc(Cl)cc(I)c1O)c1ccc(I)cc1 [Compound 27] | 82 |
| O=C(N/N=C/c1cc(Cl)cc(I)c1O)c1cccc(I)c1 [Compound 20] | 73 |

###

Test system: T47D cell line
Test: MTT cytotoxicity assay
Format: cell-based
Settings: 48h, 25 µM, Repeat No 2

| Record Smiles | Assayed Target | Units | cell proliferation |
| --- | --- | --- | --- |
| O=C(N/N=C/c1cc(I)cc(I)c1O)c1ccccc1I | T47D cell line | % | 79 |
| O=C(N/N=C/c1cc(Cl)cc(I)c1O)c1cccc(I)c1 | T47D cell line | % | 75 |
| O=C(N/N=C/c1cc(Cl)cc(I)c1O)c1ccc(I)cc1 | T47D cell line | % | 84 |
| O=C(N/N=C/c1cc(Br)cc(Br)c1O)c1cccc(I)c1 | T47D cell line | % | 81 |

###

System: A549 cell line
Assay: MTT cytotoxicity assay
Type: cell-based
Details: A549, 24h, 100 µM, Repeat No 2
Measured Attribute: cell proliferation (%)

| Molecule | Experimental Value |
| --- | --- |
| O=C(N/N=C/c1cc(Cl)cc(I)c1O)c1cccc(I)c1 [Compound 20] | 93 |
| O=C(N/N=C/c1cc(Br)cc(Br)c1O)c1cccc(I)c1 [Compound 21] | 94 |
| O=C(N/N=C/c1cc(I)cc(I)c1O)c1ccccc1I [Compound 14] | 74 |
| O=C(N/N=C/c1cc(Cl)cc(I)c1O)c1ccc(I)cc1 [Compound 27] | 103 |

###

System: T47D cell line
Assay: MTT cytotoxicity assay
Format: cell-based
Conditions: 48h, 75 µM, Repeat No 2
Measured Attribute: cell proliferation (%)

| Record Smiles | Units | Experimental Value |
| --- | --- | --- |
| O=C(N/N=C/c1cc(I)cc(I)c1O)c1ccccc1I | % | 69 |
| O=C(N/N=C/c1cc(Cl)cc(I)c1O)c1ccc(I)cc1 | % | 72 |
| O=C(N/N=C/c1cc(Cl)cc(I)c1O)c1cccc(I)c1 | % | 86 |
| O=C(N/N=C/c1cc(Br)cc(Br)c1O)c1cccc(I)c1 | % | 74 |

###

Reported cell proliferation is given for each of the following compounds.
System: T47D cell line
Assay: MTT cytotoxicity assay
Type: cell-based
Conditions: 24h, 75 µM, Repeat No 2
Measured Attribute: cell proliferation (%)

| Compound | Units | Experimental Value |
| --- | --- | --- |
| O=C(N/N=C/c1cc(Cl)cc(I)c1O)c1cccc(I)c1 [Compound 20] | % | 73 |
| O=C(N/N=C/c1cc(Br)cc(Br)c1O)c1cccc(I)c1 [Compound 21] | % | 79 |
| O=C(N/N=C/c1cc(I)cc(I)c1O)c1ccccc1I [Compound 14] | % | 80 |
| O=C(N/N=C/c1cc(Cl)cc(I)c1O)c1ccc(I)cc1 [Compound 27] | % | 87 |
